Provide the recorded inhibition for the entries that follow.
molecular target: NUAK family SNF1-like kinase 1 (Homo sapiens) (UniProt O60285); conditions: at 1 µM
Sequence (O60285 whole entry): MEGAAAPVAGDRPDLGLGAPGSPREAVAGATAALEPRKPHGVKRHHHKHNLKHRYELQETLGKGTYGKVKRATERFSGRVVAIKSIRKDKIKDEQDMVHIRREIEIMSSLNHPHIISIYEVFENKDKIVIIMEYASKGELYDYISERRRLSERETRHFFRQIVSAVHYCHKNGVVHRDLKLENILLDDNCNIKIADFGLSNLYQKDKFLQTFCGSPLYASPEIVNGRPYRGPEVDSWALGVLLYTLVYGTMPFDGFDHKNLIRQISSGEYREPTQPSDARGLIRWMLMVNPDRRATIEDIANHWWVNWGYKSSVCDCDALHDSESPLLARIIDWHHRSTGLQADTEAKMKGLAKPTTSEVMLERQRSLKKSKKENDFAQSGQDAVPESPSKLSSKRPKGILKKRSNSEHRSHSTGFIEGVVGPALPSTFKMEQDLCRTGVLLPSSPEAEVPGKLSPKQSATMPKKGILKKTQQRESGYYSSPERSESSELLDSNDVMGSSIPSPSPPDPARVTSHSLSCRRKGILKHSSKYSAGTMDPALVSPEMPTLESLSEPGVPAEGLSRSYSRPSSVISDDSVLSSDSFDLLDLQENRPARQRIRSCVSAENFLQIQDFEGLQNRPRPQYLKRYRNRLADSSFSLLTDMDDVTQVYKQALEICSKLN
Description: GSK_PKIS: ARK5 mean inhibition at 1 uM [Nanosyn]
# number only, unit % dropped from output

Specify inhibition for `CCCNc1cccc(-n2ncc3c(N/N=C/c4ccncc4)ncnc32)c1` and stop. 36.3

Query inhibition for `COC(=O)Nc1nc2cc(Oc3ccc(NC(=O)Nc4ccccc4)cc3)ccc2[nH]1` -0.72

Indicate the recorded inhibition value for this molecule: `COc1c(C(N)=O)cc(-c2ccc(Cl)cc2)cc1-c1ccc(S(N)(=O)=O)cc1` 1.1

Give a short answer stating reported inhibition for `CN(c1ccc(NC(=O)NCCN2CCOCC2)cc1)c1ccnc(Nc2ccc(CS(C)(=O)=O)cc2)n1` . 41.6

Give inhibition for the following molecule: `CS(=O)(=O)CCNCc1ccc(-c2ccc3ncnc(Nc4ccc(OCc5cccc(C(F)(F)F)c5)cc4)c3c2)o1` 6.75
